measured-on: Protein kinase C (PKC)
experiment-summary: Activation of PKC in human ACH-2 cells infected with latent HIV-1 assessed as reversal of HIV-1 latency by measuring increase in p24 antigen level incubated for 48 hrs by chemiluminescent enzyme immunoassay
Assay type: cell-based
measurement-context: ach-2 cell line
Listing of entries alongside the reported EC50.
Report the value in nM with no unit label.

Solved cases below.
So, CC(C)[C@H]1C(=O)N[C@H](CO)Cc2cc3c(cc2N1C)C(C)(C)CCC3(C)C ? Its EC50 was 2910

EC50 recorded for this compound, CCCCCCCCCCc1ccc2c(c1)N(C)[C@H](C(C)C)C(=O)N[C@H](CO)C2 , is 430

Short answer for CC(C)[C@H]1C(=O)N[C@H](CO)Cc2c[nH]c3cccc(c23)N1C : EC50 was 47

get_value(item= CCCCCCCCCCc1ccc2c(c1)N(C)[C@@H](C(C)C)C(=O)N[C@H](CO)C2 , readout=EC50) returns 25

Field: next compound
Form: compound = CCCCCCCCCCc1ccc2c(c1)N(C)[C@H](C(C)C)C(=O)N[C@H](CO)CC2 ; EC50 = 1540

====

experiment-summary: Toxicity in human U-937 cells assessed as reduction in cell viability after 48 hrs by WST8 assay
Format: cell-based
Entries and their measured CC50 at 48 h follow.
# output: bare number, implied unit µM

Answered examples (2):
// CCCCCCCCCCc1ccc2c(c1)N(C)[C@@H](C(C)C)C(=O)N[C@H](CO)C2 : CC50 at 48 h value = 61.2

Looking up CCCCCCCCCCc1ccc2c(c1)N(C)[C@H](C(C)C)C(=O)N[C@H](CO)C2 , I see its CC50 at 48 h listed as 39.2

API: the following record is the query input.
The compound listed as CC(C)[C@H]1C(=O)N[C@H](CO)Cc2cc3c(cc2N1C)C(C)(C)CCC3(C)C has a reported CC50 at 48 h of 22.9

====

experiment-summary: Toxicity in human PBMC assessed as reduction in cell viability after 5 days by WST8 assay
Format: cell-based
measurement-context: time 5 day
recorded-endpoint: CC50 at 120 h (µM)
The response must be a number in µM with no trailing unit.

# CC50 at 120 h of CCCCCCCCCCc1ccc2c(c1)N(C)[C@@H](C(C)C)C(=O)N[C@H](CO)C2 = 39.9

---
// CC50 at 120 h lookup, compound = CCCCCCCCCCc1ccc2c(c1)N(C)[C@H](C(C)C)C(=O)N[C@H](CO)C2 , result: 18.9

Item: CC(C)[C@H]1C(=O)N[C@H](CO)Cc2cc3c(cc2N1C)C(C)(C)CCC3(C)C | CC50 at 120 h: 65.8

====

Test system: J-Lat 6.3
experiment-summary: Induction of apoptosis in human J-Lat 6.3 cells assessed as caspase-3 activation at 1 uM incubated for 24 hrs by flow cytometry
Assay type: functional
recorded-endpoint: Activity
Param answer (str): number followed by unit.

Some solved entries appear below for comparison.
Activity measured on CC(=O)O[C@@]12C[C@@H](C)[C@@]3(O)[C@@H](C=C(CO)C[C@]4(O)C(=O)C(C)=C[C@@H]34)[C@@H]1C2(C)C = 8.66%

// recorded Activity for CCCCCCCCCCc1ccc2c(c1)N(C)[C@H](C(C)C)C(=O)N[C@H](CO)C2 : 2.25%

Recorded Activity (compound CC(C)[C@H]1C(=O)N[C@H](CO)Cc2c[nH]c3cccc(c23)N1C ): 14.1%

Now, please, on to the next compound.
Value of Activity reported for the compound CCCCCCCCCCc1ccc2c(c1)N(C)[C@@H](C(C)C)C(=O)N[C@H](CO)C2 is 12.2%

The reported measurements were obtained from ChEMBL document CHEMBL5674882.
